Measured values drawn from paper PMC11995724 for this set.

- experimental details: in vitro
- test settings: human, hek293t cells
Label met when viability at 48 h, 25 µM is strictly below 90%; at or above that, label not met.

compound: Cn1ccnc1Sc1ccc(C=C(C#N)C(N)=O)cc1[N+](=O)[O-]
cat: not met
//
compound: C=CC(=O)N(C)CC(=O)N1CCC[C@H](NC(=O)C(F)(F)F)[C@@H]1C (racemic)
cat: not met
//
compound: O=C(CCl)NCc1ccc(N2CCOCC2)nc1
cat: met
//
compound: N#CC(=Cc1ccc(OC(F)F)cc1)C(=O)Nc1ccccc1
cat: not met
//
compound: Cc1c(C#N)c(NC(=O)CCl)n(Cc2ccco2)c1C
cat: met
//
compound: C=CC(=O)NCC1CCOC1 (centres unmarked) [1-H08, N-[(oxolan-3-yl)methyl]prop-2-enamide]
cat: met
//
compound: O=C(CCl)NCCc1cccc2ccccc12
cat: met
//
compound: O=[N+]([O-])c1ccccc1S(=O)(=O)N1CCSSCC1
cat: not met
//
compound: CC(Cl)C(=O)N1CCC(N(CC(F)(F)F)S(C)(=O)=O)CC1 (centres unmarked)
cat: not met
//
compound: N#CC(=Cc1cc2cc(F)ccc2o1)C(=O)NC(N)=O
cat: met
//
compound: Cc1ccc(C(=O)CCl)o1
cat: met
//
compound: Cc1cnc(C(C)N2CCN(C(=O)C(C)Cl)CC2)s1 (centres unmarked)
cat: not met
//
compound: N#CC(=Cc1ccc(Cl)cc1)C(=O)Nc1ccccn1
cat: not met
//
compound: C=CC(=O)NCCNC(=O)c1c(C)cc(C)nc1C
cat: not met
//
compound: C=CC(=O)N1CCOC(Cn2nc(C)nc2C)C1 (centres unmarked)
cat: not met
//
compound: COc1cc(NC(=O)CCl)c(C)cc1[N+](=O)[O-]
cat: met
//
compound: COc1cc(C)c(C=C(C#N)C(=O)Nc2ccc(C)cc2)cc1C(C)C
cat: not met
//
compound: C=CC(=O)NCc1nnc(C(F)(F)F)s1
cat: not met
//
compound: COc1cccc(N2C(=O)C=CC2=O)c1
cat: met
//
compound: C=CC(=O)Nc1cc(NC(=O)C2CCC2)ccc1F
cat: met
